# TEST TARGET: VIM-1 (Pseudomonas aeruginosa)
# PROCEDURE TEXT: Ki of competitive MBL inhibition (method of Waley)
# Format: biochemical
# CONDITION INFO: Kd values for MBLs were based on Kis
MEASURED ATTRIBUTE: Kd (nM)
Report the value in nM with no unit label.

(Q) Give a short answer stating reported Kd for O=C(O)c1c(F)ccc2c1OB(O)[C@@H]1C[C@H]21 .
(A) 7.5

---

Item-by-item account of IC50
# TEST TARGET: NDM-1 (Klebsiella pneumoniae)
# Sequence (C7C422 29-270 limits assumed): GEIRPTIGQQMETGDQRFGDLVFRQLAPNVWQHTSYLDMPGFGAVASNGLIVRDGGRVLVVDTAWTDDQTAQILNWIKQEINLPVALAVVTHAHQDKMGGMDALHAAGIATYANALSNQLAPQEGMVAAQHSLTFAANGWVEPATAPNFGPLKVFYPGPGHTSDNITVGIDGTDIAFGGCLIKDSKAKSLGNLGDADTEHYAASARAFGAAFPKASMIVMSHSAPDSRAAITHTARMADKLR

(Q) // Input: O=C(NC1CCNCC1)[C@@H]1CC[C@@H]2CN1C(=O)N2OS(=O)(=O)O . Output its IC50 only.
(A) > 160 µM

(Q) State its IC50 for this compound: O=C(O)C[C@@H]1CC[C@H](NC(=O)Cc2cccs2)B(O)O1
(A) > 160 µM

(Q) State, in one line, measured IC50 of NC(=O)[C@@H]1CC[C@@H]2CN1C(=O)N2OS(=O)(=O)O
(A) > 160 µM

Hello, the source for this data is paper PMC7269513, in case you need it.
